Source of measurements: PubChem BioAssay (NCI)

System: HCC-2998 colon
ASSAY INFO: NCI-60 one-dose screen, 48 h (100 = growth as untreated, 0 = no growth, -100 = all killed)
MEASUREMENT SETUP: 10 µM unless noted
Description: Growth inhibition of the HCC-2998 human tumor cell line is measured as a screen for anti-cancer activity. Cells are grown in 96 well plates and exposed to the test compound for 48 hours. Compounds are tested at a single concentration, which is 10^-5 M for most compounds. The reported endpoint is percent growth (GI% or GIPRCNT), where numbers from 0 - 100% represent growth inhibition, and numbers from -100% - 0 represent cell death. For example, a value of 40 represents 60% growth inhibition. […]
The panel holds about 83,000 compounds, 20% with a hit somewhere; the sample as a whole holds those more often.
Task for the reader: assign each of the following molecules its reported growth.
Answers are plain numbers, in %.

Below are worked cases with known answers.
C/C=C(\C)C(C(=O)NC1CCCCC1)N(C(=O)C1CCc2cc(F)ccc2O1)c1ccc(Cl)cc1 (centres undefined)
94.9
COc1cc(-c2nn(-c3cccc(NC(=O)c4ccc(N5CCOCC5)c(C(F)(F)F)c4)c3)cc2-c2ccncc2)ccc1Cl
8.82
COc1ccc(-c2[nH]nc(N)c2-c2cc(OC)c3c(c2)OCO3)cc1
44.3

Query: Give the reported growth for this molecule. CCN1CCN(CC(=O)N2c3cccc4cccc(c34)N(C(=O)CN3CCN(CC)CC3)C2c2cn(-c3ccccc3)nc2-c2cccc([N+](=O)[O-])c2)CC1
Reply: -49.1

====

System: PC-3 prostate
ASSAY INFO: NCI-60 one-dose screen, 48 h
MEASUREMENT SETUP: 10 µM unless noted
Compounds without any hit were thinned out: in the full panel of roughly 83,000, 20% have a hit. Active and inactive are the calls of the source. How the source made its calls: active means growth percent below 10; inactive means the rest.
Form entry, call: pick from active, inactive

# count of solved cases: 6
COc1ccc(-c2ccc(-c3ccc(C(=N)N)cn3)s2)cc1OC
inactive
CC1=C(C#N)C(=O)NC(C)C1 (stereo unspecified)
inactive
CCN(CC)CCC(CNc1c2ccc(Cl)cc2nc2ccc(OC)cc12)c1ccccc1 (stereo unspecified)
inactive
CN1CCN(Cc2ccc(NC(=O)c3cncc(C#Cc4cnc(N)c5cnccc45)c3)cc2C(F)(F)F)CC1
inactive
Cc1nn(-c2ccc([N+](=O)[O-])cc2)c2ncnc(NCCc3ccccc3)c12
inactive
CC1=NC2=CC=CC3=NC(C(Cl)(Cl)Cl)=NC(=N1)N23
inactive

Query: In this assay, the call recorded for O=C1C2(c3ccccc3)C(c3ccccc3)=C(c3ccccc3)C1(c1ccccc1)C1CC=CC12 (stereo unspecified) was what?
Reply: inactive

Query: In this assay, the call recorded for CC[N+](CC)=c1cc2oc3cc(N(C)C)ccc3nc-2cc1C was what?
Reply: inactive

Query: In this assay, the call recorded for CCN1CCN(c2nc(NNC(=O)c3ccccc3)nc(N3CCN(C(c4ccccc4)c4ccccc4)CC3)n2)CC1 was what?
Reply: inactive

Query: In this assay, the call recorded for CN(C)CC(C(=O)c1ccccc1)c1ccccc1 (stereo unspecified) was what?
Reply: inactive

Query: In this assay, the call recorded for COc1cc(/C=C/C(=O)c2ccc(Nc3ncnc4cc(OC)c(OC)cc34)cc2)cc(OC)c1 was what?
Reply: inactive

Query: In this assay, the call recorded for CC(=O)Oc1cccc(S(=O)(=O)n2cc(C(=O)C(=O)Nc3ccncc3)c3ccccc32)c1 was what?
Reply: inactive

====

Tested on: OVCAR-3 ovarian
ASSAY INFO: NCI-60 one-dose screen, 48 h
MEASUREMENT SETUP: 10 µM unless noted
About 83,000 compounds went through this panel and 20% of them were active in at least one assay; those are over-represented in the sample as a whole. Active and inactive are the calls of the source. How the source made its calls: active means growth percent below 10; inactive means the rest.
Form entry, call: pick from Y = active, N = inactive

# count of solved cases: 5
COc1ccc(/C=C2/C(=O)NC(SCC(=O)N3CCN(c4cc5c(cc4F)c(=O)c(C(=O)O)cn5C4CC4)CC3)=NC2N)cc1OC (stereo not given)
N
CCCCN(CCCC)c1ccc(C(=N)c2ccc(N(CCCC)CCCC)cc2)cc1
Y
N#Cc1c(-c2ccccc2)nc(SCC(=O)N2CCN(c3ccccc3)CC2)[nH]c1=O
N
Clc1cccc(-c2cc(-c3ccc4c(c3)OCCO4)[nH]n2)c1
N
CCCCCCCCC(C)OC(=O)c1nn(C(C)=O)c2ccccc12 (stereo not given)
N

Query: In this assay, the call recorded for Fc1ccc(CNCCNc2ncnc3c2cnn3-c2ccccc2)cc1 was what?
Reply: N

Query: In this assay, the call recorded for COc1ccc(C(=O)N2NC(=O)/C(=C/c3ccc(F)cc3)N=C2c2ccccc2)cc1 was what?
Reply: N

Query: In this assay, the call recorded for CCCCCCCCCCCCNC(=O)[C@H]1CSC(c2cc(Br)cs2)N1 (stereo not given in full) was what?
Reply: Y

Query: In this assay, the call recorded for CCNc1nc(S(=O)(=O)CC)nc2ccccc12 was what?
Reply: N

Query: In this assay, the call recorded for Clc1ccc2c(NC3CCC(NC4CCCCC4)CC3)ccnc2c1 (stereo not given) was what?
Reply: N

====

Task for the reader: assign each of the following molecules its reported growth.
Tested on: KM12 colon
ASSAY INFO: NCI-60 one-dose screen, 48 h (100 = growth as untreated, 0 = no growth, -100 = all killed)
MEASUREMENT SETUP: 10 µM unless noted
About 83,000 compounds went through this panel and 20% of them were active in at least one assay; those are over-represented in the sample as a whole.
One number for each entry, in %.

Cc1ccc(S(=O)(=O)NCCCNc2cc(-c3cn(C(C)(C)C)nc3-c3cccc(O)c3)ccn2)cc1
39.8
CO[C@H]1NC(=O)N(S(=O)(=O)c2ccc(Cl)cc2)[C@@H]1OC
103
CCCCCCCCCCCCCCCCCCNC(=O)[C@H]1CSC(c2cccs2)N1 (stereo not given in full)
-70.9
COC(=O)C(Sc1ccc(Cl)cc1)C1SC(=S)N(Cc2ccccc2)C1=O (stereo not given)
99.6
c1cc2[nH]ncc2cc1-c1nc2ccc3[nH]ncc3c2c2c1CCC2
31.4
O=c1[nH]c(-c2ccccc2)nc(CN2CCCCC2)c1O
108
c1coc(CNc2ccnc(Nc3ccc(OCCN4CCCCC4)cc3)n2)c1
84.8
O=C(NCCNc1nccc(-n2ccc3cccnc32)n1)c1ccc(C(F)(F)F)cc1
100

Give me growth for each of these molecules, listed below.
1. CN(CCCCN(C[C@H]1Cc2ncccc2CN1)[C@H]1CCCc2cccnc21)C1CCC(F)(F)CC1
2. COc1cc2c(cc1O)CCN1C[C@@H](CC(C)C)[C@@H](O)C[C@@H]21

Reply:
1. 88
2. 109

====

Tested on: CCRF-CEM leukemia
ASSAY INFO: NCI-60 one-dose screen, 48 h (100 = growth as untreated, 0 = no growth, -100 = all killed)
MEASUREMENT SETUP: 10 µM unless noted
About 83,000 compounds went through this panel and 20% of them were active in at least one assay; those are over-represented in the sample as a whole.
Task for the reader: assign each of the following compounds its reported growth.
Give bare numbers, in %.

Below are worked cases with known answers.
COc1ccc2[nH]c(C(=O)OCc3ccc4c(Cl)cc(Cl)c(O)c4n3)cc2c1
-9.99
CC(=O)c1cc2c(N)c(C(=O)Nc3cccc4c3OCCO4)sc2nc1C
96.7
CCOC(=O)C1=C(C)NC(C)=C(C(=O)OCC)C1(C)C
94.4
CC(C)(C)n1cc(-c2ccnc(NCCCNS(=O)(=O)c3ccc(F)cc3)c2)c(-c2cccc(O)c2)n1
35.7
CCOC(=O)/C(C#N)=C1/C(=O)Nc2ccccc21
67.1

Give me growth for each of these compounds, listed below.
1. Cc1ccc(-c2cc3nc(C(Cl)Cl)nc(-c4ccccc4C)n3n2)cc1
2. COc1ccc(S(=O)(=O)NCCCNc2nccc(-n3ccc4cccnc43)n2)cc1
3. COc1cc(-c2ncn(/C=C\C(=O)OC(C)C)n2)cc(C(F)(F)F)c1
4. O=c1[nH]c(NCc2ccccc2)nc2nc(Nc3ccc(NC(=S)Nc4ccccc4)cc3)nc(-c3ccc(O)cc3O)c12
5. COc1ccc(C2C=C(c3ccc(N)cc3)N=C3SC=CN32)cc1OC (stereo not given)

Reply:
1. 96.1
2. 90
3. 11.5
4. 86.4
5. 97.7

====

Test system: NCI/ADR-RES ovarian
ASSAY INFO: NCI-60 one-dose screen, 48 h (100 = growth as untreated, 0 = no growth, -100 = all killed)
MEASUREMENT SETUP: 10 µM unless noted
Compounds without any hit were thinned out: in the full panel of roughly 83,000, 20% have a hit.
Threshold check on growth: strictly below 80% is Fulfilled; on or above 80% is Not fulfilled.

# count of solved cases: 5
COc1ccc(N2CCN(Cc3cc(C(=O)/C=C/c4c[nH]c5ccccc45)ccc3O)CC2)cc1
Not fulfilled
CCOC(=O)c1ccc2c(c1)nc(-c1ccc(OCc3ccccc3)c(OC)c1)n2-c1cc(C(C)(C)C)[nH]n1
Not fulfilled
COC(=O)c1cc(=O)nc(N/N=C/c2ccco2)s1
Not fulfilled
CCCCCCCCC(C)OC(=O)c1nn(C(C)=O)c2ccccc12 (stereo not given)
Not fulfilled
CN(C)c1ncnc2c1ccn2C1OC(CO)C(O)C1O (stereo not given)
Fulfilled

Query: Say whether its growth is strictly beneath 80%. Entry: O=C1c2c(c3c4ccccc4n(CCCCCCBr)c3c3[nH]c4ccccc4c23)C(=O)N1O
Reply: Fulfilled

Query: Say whether its growth is strictly beneath 80%. Entry: Nc1ncnc2c1c(-c1ccc(Oc3ccccc3)cc1)nn2C[C@@H]1SSC[C@@H]1O
Reply: Fulfilled

Query: Say whether its growth is strictly beneath 80%. Entry: Cc1ccc(Cc2c(C=O)nc(N)[nH]c2=O)c2ccccc12
Reply: Not fulfilled

Query: Say whether its growth is strictly beneath 80%. Entry: COc1cc(C(=O)/C=C/c2c(C)n([O-])c3ccc(C(F)(F)F)cc3[n+]2=O)cc(OC)c1OC
Reply: Fulfilled

Query: Say whether its growth is strictly beneath 80%. Entry: CN(C)CC(C(=O)c1ccccc1)c1ccccc1 (stereo not given)
Reply: Fulfilled

Query: Say whether its growth is strictly beneath 80%. Entry: CC(C)(C)OC(=O)NC(CSCc1ccccc1)C(=O)ON1C(=O)CCC1=O (stereo not given)
Reply: Not fulfilled

Query: Say whether its growth is strictly beneath 80%. Entry: CCOC(=O)c1c(NS(=O)(=O)c2ccc(C)cc2)sc2c1CCC1(C2)OCCO1
Reply: Not fulfilled

Query: Say whether its growth is strictly beneath 80%. Entry: C=C(C)[C@@H]1C[C@@H]2Cc3ccc(Cl)c(C)c3N1O2
Reply: Not fulfilled

Query: Say whether its growth is strictly beneath 80%. Entry: COc1ccc(-c2cc(-c3ccccc3)nc(SCCCC(=O)NO)n2)cc1OC
Reply: Fulfilled

Query: Say whether its growth is strictly beneath 80%. Entry: CC(C)(C)n1cc(-c2ccnc(NCCCNS(=O)(=O)c3ccc(F)cc3)c2)c(-c2cccc(O)c2)n1
Reply: Fulfilled

Query: Say whether its growth is strictly beneath 80%. Entry: O=C1NN(C(=O)c2ccc(Cl)cc2)C(c2ccccc2)=N/C1=C\c1ccc(F)cc1
Reply: Fulfilled

Query: Say whether its growth is strictly beneath 80%. Entry: Cc1ccc(-c2cc3nc(C(Cl)Cl)nc(-c4cccnc4)n3n2)cc1
Reply: Fulfilled
